Cited source: patent US11142515B2

# systemUnderTest: p38MAPKγ (MAPK12) (Homo sapiens, UniProt P53778)
# Construct: purchased Life Technologies
# Sequence (P53778 1-367): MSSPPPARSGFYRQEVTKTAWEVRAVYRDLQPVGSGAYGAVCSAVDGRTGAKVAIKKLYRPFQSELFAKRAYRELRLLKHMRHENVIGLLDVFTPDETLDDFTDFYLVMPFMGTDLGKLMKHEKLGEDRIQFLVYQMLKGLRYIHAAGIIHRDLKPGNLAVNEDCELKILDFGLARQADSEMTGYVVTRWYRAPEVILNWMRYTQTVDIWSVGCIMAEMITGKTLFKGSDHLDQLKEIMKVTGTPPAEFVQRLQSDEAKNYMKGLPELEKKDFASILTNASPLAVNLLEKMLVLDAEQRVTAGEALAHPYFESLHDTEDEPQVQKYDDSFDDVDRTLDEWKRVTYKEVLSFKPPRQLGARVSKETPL
# assayDetails: p38 MAPKγ enzyme inhibition (Z-LYTE FRET)
# Assay type: biochemical
# setupConditions: Table 2B, unit inferred; read-out: p38 MAPKγ (Enzyme Profile)
Measured IC50 of individual entries

{"structureNotation": "COc1cc(F)cc(-n2nc(C(C)(C)C)cc2NC(=O)Nc2ccc(OCc3ccnc(Nc4cnc(C(=O)N5CCCC5)cn4)c3)c3ccccc23)c1", "IC50": "> 13.7 µM"}
{"structureNotation": "COc1ccc(-n2nc(C(C)(C)C)cc2NC(=O)Nc2ccc(OCc3ccnc(Nc4cnc(C)c(C)n4)c3)c3ccccc23)cc1F", "IC50": "> 15.1 µM"}
{"structureNotation": "COCCNC(=O)c1cnc(Nc2cc(COc3ccc(NC(=O)Nc4cc(C(C)(C)C)nn4-c4ccc(OC)c(C)c4)c4ccccc34)ccn2)cn1", "IC50": "> 13.7 µM"}
{"structureNotation": "CCOc1cccc(-n2nc(C(C)(C)C)cc2NC(=O)Nc2ccc(OCc3ccnc(Nc4cnccn4)c3)c3ccccc23)c1", "IC50": "> 15.9 µM"}

Turning now to a further record.
Specify IC50 for `CCOc1ccc(-n2nc(C(C)(C)C)cc2NC(=O)Nc2ccc(OCc3ccnc(Nc4cnccn4)c3)c3ccccc23)cc1C` , system p38MAPKγ (MAPK12) (Homo sapiens, UniProt P53778).
> 15.6 µM
